The measured values listed here are drawn from PubChem BioAssay (NCI).

For each of the molecules below, state its growth.
Tested on: SN12C renal
Experiment: NCI-60 one-dose screen, 48 h (100 = growth as untreated, 0 = no growth, -100 = all killed)
Details: 10 µM unless noted
Compounds without any hit were thinned out: in the full panel of roughly 83,000, 20% have a hit.
Give bare numbers, in %.

Observe how each entry below is paired with its result.
- Molecule: "O=C(c1nc2ccccc2[nH]1)C1C(c2cccc([N+](=O)[O-])c2)C2CC3CCCCC3N2[C@@]12C(=O)Nc1cc(Cl)ccc12 (some centres undefined)"
  Unit text: "%"
  Value measured: 33.2
- Molecule: "CC(=O)c1ccc(NC(=O)Nc2ccc(S(=O)(=O)Nc3ccc(Cl)nn3)cc2)cc1"
  Unit text: "%"
  Value measured: 97.9
- Molecule: "COc1cc(/C=C2\\CN(C)C/C(=C\\c3cc(CN4CCCC4)c(O)c(OC)c3)C2=O)cc(CN2CCCC2)c1O"
  Unit text: "%"
  Value measured: 53.6

Batch request: growth per item, same order as input.
1. Nc1ccn(C2O[C@H](CO)[C@@H](O)[C@H]2O)c(=O)n1 (some centres undefined)
2. COc1cc(C2C3=C(COC3=O)N(CCO)c3cc4c(cc32)OCCO4)cc(OC)c1O (centres undefined)
3. Nc1nc(-c2ccccc2Br)nn1-c1nc2ccccc2s1
4. Cc1ccc(Cn2c(N3CCC(C(=O)NCc4cccs4)CC3)nc3ccccc32)cc1

54.9
39.8
100
87.9

Return reported growth values for all items listed beneath this line.
1. Cc1cc2c(c(C)c1Cl)C(=O)/C(=C/c1cccc([N+](=O)[O-])c1)O2
2. NC1(N2SC(S)=C3CCCC=C32)CCCCC1

[96.9, 104]

* * *

System: OVCAR-4 ovarian
Assay: NCI-60 one-dose screen, 48 h (100 = growth as untreated, 0 = no growth, -100 = all killed)
Conditions: 10 µM unless noted
The panel holds about 83,000 compounds, 20% with a hit somewhere; the sample as a whole holds those more often.
So basically, if growth comes in under 70% it's True, and if it's 70% or more it's False.

Completed entries (count: 8):
- Compound: "COc1ccc(Cn2c(Br)c3c(c2-c2cc(OC)c(OC)c(OC)c2)CCc2sc(NC(C)=O)nc2-3)cc1"
  Assayed target: "OVCAR-4 ovarian"
  Label: "True"
- Compound: "Cc1cc(Nc2ccc(OCc3ccccc3)cc2)nc2cc(O)ccc12"
  Assayed target: "OVCAR-4 ovarian"
  Label: "True"
- Compound: "COc1ccc(C2NCCc3c2[nH]c2ccccc32)cc1CN1CCN(c2ccc(F)cc2)CC1 (centres undefined)"
  Assayed target: "OVCAR-4 ovarian"
  Label: "True"
- Compound: "COC(=O)/C(CCC=C(C)C)=C1\\[C@@H](OC(C)=O)C[C@@]2(C)[C@H]1CC(=O)N[C@H]1[C@@]3(C)CCNC(=O)[C@@H](C)[C@@H]3CC[C@@]12C"
  Assayed target: "OVCAR-4 ovarian"
  Label: "False"
- Compound: "COc1cc(C2C3=C(COC3=O)N(CCO)c3cc4c(cc32)CCC4)cc(OC)c1O (centres undefined)"
  Assayed target: "OVCAR-4 ovarian"
  Label: "True"
- Compound: "Nc1ccc(C2c3ccccc3Oc3ccccc32)cc1"
  Assayed target: "OVCAR-4 ovarian"
  Label: "False"
- Compound: "O=c1oc2ccc(F)cc2c(=O)n1-c1ccc(Cl)cc1F"
  Assayed target: "OVCAR-4 ovarian"
  Label: "True"
- Compound: "COC(=O)/C(=C\\c1c(-c2ccccc2)[nH]c2ccccc12)S(C)(=O)=O"
  Assayed target: "OVCAR-4 ovarian"
  Label: "True"

Turning now to a further compound:
Decide: growth of N#C/C(=C\c1c(-c2ccccc2)[nH]c2ccccc12)S(=O)(=O)c1ccccc1 strictly below 70%?
False

* * *

System: SF-539 CNS
Experiment: NCI-60 one-dose screen, 48 h (100 = growth as untreated, 0 = no growth, -100 = all killed)
Settings: 10 µM unless noted
About 83,000 compounds went through this panel and 20% of them were active in at least one assay; those are over-represented in the sample as a whole. Activity calls are given as the source filed them. Rule for the calls: active = growth percent below 10; inactive = the rest.
Experimental endpoint: growth

# example entries with known answers
- Compound: "O=S1(=O)CCN(Cc2ccccc2)CC1"
  growth: "95.6% (inactive)"
- Compound: "CCOC(=O)c1sc(-c2ccc(OS(=O)(=O)c3ccccc3[N+](=O)[O-])c(C=O)c2)nc1C"
  growth: "76.6% (inactive)"
- Compound: "O=c1oc2ccc(F)cc2c(=O)n1-c1ccc(Br)cc1F"
  growth: "2.6% (active)"

Value sought for every listed compound: growth.
1. COc1cc(/C=C2\CN(C)C/C(=C\c3cc(CN4CCCC4)c(O)c(OC)c3)C2=O)cc(CN2CCCC2)c1O
2. COc1ccc(/C=C2\CCC/C(=C\c3ccc(OC)c(OC)c3)C2=O)cc1OC
3. FC(F)(F)c1cccc(Nc2nc(-c3ccccc3)nc3ncccc23)c1
4. COc1ccc2c(c1)C=C1CSCC3=Cc4cc(OC)ccc4OC13O2

68.2% (inactive)
13.1% (inactive)
3.25% (active)
-25.4% (active)

* * *

Tested on: UACC-257 melanoma
Test: NCI-60 one-dose screen, 48 h
Conditions: 10 µM unless noted
Compounds without any hit were thinned out: in the full panel of roughly 83,000, 20% have a hit. Calls of active or inactive are those of the source. How the source made its calls: active means growth percent below 10; inactive means the rest.
Respond using exactly one of the listed classes: true (active), false (inactive)

Tell me the recorded outcome of this test for Cc1ccc(N=NC2C(=O)N(c3ccc(Cl)cc3)N(c3ccc(Cl)cc3)C2=O)cc1 .
false

Can you look up the reported call for C=C(C)CCC(C)N1CCC(N2CCC(C(=O)NCCc3ccccc3)CC2)CC1 (centres undefined) for me?
false

Record request — test call for Cc1cccc(NC(=O)c2sc3nc4c(cc3c2N)CCCC4)c1C
false

Assay result, entry O=C(Nc1ccc(F)c(Cl)c1)Nc1ccc(Cl)c(Cl)c1 — outcome?
false

I would be grateful if you could indicate the recorded call for O=NN(C(=O)NC1CCC(C(=O)O)CC1)C1CCC(C(=O)O)CC1 (centres undefined) .
false

Call for entry CCCCN1CCN(c2ccc3nc(-c4ccc5nc(-c6ccc(C(F)(F)F)cc6)[nH]c5c4)[nH]c3c2)CC1 :
true

# outcome recorded in this test, key = CN(O)c1nc(N(C)O)nc(N2CCOCC2)n1
false

// outcome(item) with item = S=C1CCCC(=S)N1
false

Test call for this compound, please: Cc1nn(-c2nc3ccccc3[nH]2)c2c1C(c1ccc(OCC(N)=O)cc1)CC(=O)N2 (centres undefined)
false

For Fc1ccc(Oc2ccc(Nc3ncnc4onc(-c5ccccc5)c34)cc2)cc1 , what call appears in the results of this test?
false

Name the outcome recorded for Cc1ccc(F)cc1NC(=O)c1cc(Cl)ccc1Nc1ccccc1 in the assay.
false

How did this test come out for C[C@@H](C(=O)NCCCC#Cc1cnc(Nc2ccc(C#N)cc2)nc1NC1CC1)N(C)C(=O)/C=C/CN(C)C ?
false

* * *

System: NCI-H322M lung
Experiment: NCI-60 one-dose screen, 48 h (100 = growth as untreated, 0 = no growth, -100 = all killed)
Conditions: 10 µM unless noted
This is part of a sample that, as a whole, favours compounds with a hit. Of some 83,000 tested, about 20% had one in any assay.
Experimental endpoint: growth (%)
Numbers only, in %.

Past entries and their recorded results:
- Mol smiles: "COc1ccc(Nc2nc(N/N=C/c3ccc(O)cc3)nc(Nc3ccc([N+](=O)[O-])cc3)n2)cc1"
  growth / %: 110
- Mol smiles: "CCC1=C[C@@H]2CN(C1)Cc1c([nH]c3ccccc13)[C@@](C(=O)OC)(c1cc3c(cc1OC)N(C)[C@H]1[C@@](O)(C(=O)OC)[C@H](OC(C)=O)[C@]4(CC)[C@@H]5C[C@@H]5CN5CC[C@]31[C@@H]54)C2"
  growth / %: 49.3

Here's the next entry for you.
Report growth under test system NCI-H322M lung for C=C1C(=O)O[C@H]2[C@H]1CC/C(COC(=O)/C=C\C(=O)O)=C\CC[C@@]1(C)O[C@@H]21 .
105

* * *

Tested on: NCI/ADR-RES ovarian
Assay: NCI-60 one-dose screen, 48 h (100 = growth as untreated, 0 = no growth, -100 = all killed)
Conditions: 10 µM unless noted
About 83,000 compounds went through this panel and 20% of them were active in at least one assay; those are over-represented in the sample as a whole.
Experimental endpoint: growth (%)
One number for each entry, in %.

Examples with answers:
- Mol smiles: "COc1ccc(C2=C(c3cccc(OC)c3)C(=O)c3ccc(C)nc3C2=O)cc1"
  Value measured: 17.1
- Mol smiles: "CC[C@H](C)[C@@H](C(=O)OC)n1cc(CNC(=O)[C@@H](Cc2ccccc2)NC(=O)OCc2ccccc2)nn1"
  Value measured: 94.4
- Mol smiles: "CC(=O)c1ccc2oc(=O)n(Cc3ccc(C#N)cc3)c(=O)c2c1"
  Value measured: 110
- Mol smiles: "Nc1ncnc(N)c1NC(=O)c1ccc(OCc2ccccc2)cc1"
  Value measured: 113

Field: next molecule
Please give the documented growth of COc1cc(/C=C2\CN(C)C/C(=C\c3cc(CN4CCCC4)c(O)c(OC)c3)C2=O)cc(CN2CCCC2)c1O
100
